# target_desc: PBP2 (Pseudomonas aeruginosa)
# Construct: using bacterial membranes as the source of PBPs; endogenous in cells; host or cells: P. aeruginosa ATCC 27853 membrane preparation
# Sequence (Q9X6V3 1-646): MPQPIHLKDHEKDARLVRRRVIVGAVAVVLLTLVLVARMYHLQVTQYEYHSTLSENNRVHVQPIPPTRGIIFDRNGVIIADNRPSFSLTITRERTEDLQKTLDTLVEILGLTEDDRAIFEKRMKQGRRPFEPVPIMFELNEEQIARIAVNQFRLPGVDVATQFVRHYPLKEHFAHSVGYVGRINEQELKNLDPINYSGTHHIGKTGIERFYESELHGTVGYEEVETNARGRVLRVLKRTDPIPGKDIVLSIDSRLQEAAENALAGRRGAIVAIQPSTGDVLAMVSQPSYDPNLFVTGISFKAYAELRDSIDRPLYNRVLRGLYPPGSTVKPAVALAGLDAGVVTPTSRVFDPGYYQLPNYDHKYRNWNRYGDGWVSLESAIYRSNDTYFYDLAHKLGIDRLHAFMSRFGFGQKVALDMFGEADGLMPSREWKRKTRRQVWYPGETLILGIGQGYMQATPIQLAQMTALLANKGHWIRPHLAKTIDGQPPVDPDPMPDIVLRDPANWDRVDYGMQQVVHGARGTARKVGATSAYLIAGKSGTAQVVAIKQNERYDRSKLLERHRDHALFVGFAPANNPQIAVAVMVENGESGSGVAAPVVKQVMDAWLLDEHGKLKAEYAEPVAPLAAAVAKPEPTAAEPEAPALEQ
# experimental_details: Membrane PBP binding assay, competition with Bocillin FL
# test_context: P. aeruginosa ATCC 27853 membranes; read-out: IC50 PBP2
pIC50: −log10 of the molar value.

compound	relation_qualifier	pIC50
N[C@@H](C(=O)N[C@@H]1C(=O)N2C(C(=O)O)=C(Cl)CC[C@H]12)c1ccccc1 [LOR, loracarbef, reference compound]	<	4.30
N[C@@H](C(=O)N[C@@H]1C(=O)N2C(C(=O)O)=C(Cl)CS[C@H]12)c1ccccc1 [CEF, cefaclor, reference compound]	<	4.30
O=C(CCC(=O)N(CCCCNC(=O)c1cccc(O)c1O)CCCNC(=O)c1cccc(O)c1O)NCCCCCN(O)C(=O)CCCC(=O)NC(C(=O)NC1C(=O)N2C(C(=O)O)=C(Cl)CSC12)c1ccccc1 (centres unmarked)	=	5.17
CC1(C)SC2C(NC(=O)C(NC(=O)CN(CCCCNC(=O)c3cccc(O)c3O)C(=O)c3cccc(O)c3O)c3ccccc3)C(=O)N2C1C(=O)O (centres unmarked)	<	4.30
O=C(CN(CCCCNC(=O)c1cccc(O)c1O)C(=O)c1cccc(O)c1O)NC(C(=O)NC1C(=O)N2C(C(=O)O)=C(Cl)CCC12)c1ccccc1 (centres unmarked)	=	5.32
